- Study system: UniProt:P53779
- Sequence (P53779 1-426): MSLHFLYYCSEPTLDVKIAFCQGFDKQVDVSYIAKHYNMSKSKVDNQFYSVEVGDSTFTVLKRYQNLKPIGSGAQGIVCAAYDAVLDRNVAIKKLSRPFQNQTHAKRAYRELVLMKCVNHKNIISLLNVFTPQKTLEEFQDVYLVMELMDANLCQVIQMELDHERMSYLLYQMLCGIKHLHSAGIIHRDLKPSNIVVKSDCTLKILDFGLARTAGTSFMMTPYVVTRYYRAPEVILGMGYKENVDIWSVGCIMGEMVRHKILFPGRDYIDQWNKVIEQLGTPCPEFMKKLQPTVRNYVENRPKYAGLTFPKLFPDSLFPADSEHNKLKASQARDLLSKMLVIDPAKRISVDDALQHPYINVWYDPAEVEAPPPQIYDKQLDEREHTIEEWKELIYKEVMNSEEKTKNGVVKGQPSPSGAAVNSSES
pIC50: −log10 of the molar value.
Property measured: pIC50

Nc1nc2nc[nH]c2c(=O)[nH]1 [G, guanine]: 3.48

* * *

- Study system: JNK2 (Homo sapiens)
- Sequence (P45984 whole entry): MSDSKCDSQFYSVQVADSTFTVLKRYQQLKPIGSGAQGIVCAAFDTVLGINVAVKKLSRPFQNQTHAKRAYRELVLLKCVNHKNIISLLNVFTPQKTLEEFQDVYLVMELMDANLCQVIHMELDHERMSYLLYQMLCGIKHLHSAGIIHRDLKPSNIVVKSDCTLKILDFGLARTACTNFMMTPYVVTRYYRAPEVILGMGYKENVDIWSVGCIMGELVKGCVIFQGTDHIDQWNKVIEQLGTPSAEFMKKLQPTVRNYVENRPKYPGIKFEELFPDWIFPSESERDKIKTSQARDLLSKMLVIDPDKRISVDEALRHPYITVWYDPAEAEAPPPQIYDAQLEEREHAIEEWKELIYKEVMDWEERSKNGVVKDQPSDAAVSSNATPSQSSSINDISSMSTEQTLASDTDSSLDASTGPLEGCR
Property measured: IC50 (µM)

Nc1nc2nc[nH]c2c(=O)[nH]1: 180
